# EXPERIMENTAL_SYSTEM: Neurogenic locus notch homolog protein 2 (Homo sapiens)
# EXPERIMENTAL_DETAILS: Notch2 binders on small-molecule microarrays, primary screen, biochemical, small-molecule microarray, 635 nm fluorescence, stem cell growth factors (AID 1073)
# CONDITIONS_USED: Notch2 binding, higher = more signal
// label = yes (1) if composite z-score is not less than 0.5, otherwise no (0)

COMPOUND | CLASSIFICATION
CCN1C(=O)[C@H]2[C@H]3[C@H](O)[C@H](O)CC(=NOC(C)CN4CCCc5nc(C)c(C)cc54)[C@@H]3CC[C@H]2C1=O (stereo partly drawn) | yes (1)
CO[C@@H]1[C@H](O)CO[C@H]1C=Cc1ccccc1 | no (0)
COC(=O)C(C(=O)OC)C1CCCC(=O)C1 (stereo not drawn) | no (0)
CO[C@H]1COC(=O)CCC[C@H](C)[C@H](OC)COC(=O)CC=C[C@@H]1C | no (0)
O=C1[C@H]2[C@H]3[C@H](O)[C@H](O)CC(=NOC[C@@H](O)COCc4ccco4)[C@@H]3CC[C@H]2C(=O)N1c1cccc(Oc2ccccc2)c1 | no (0)
CCN1C(=O)[C@H]2[C@H]3[C@H](O)[C@H](O)CC(=NOCC[C@@H]4C=C[C@H](OC(C)=O)[C@@H](COC(C)=O)O4)[C@@H]3CC[C@H]2C1=O | yes (1)
CCOC(=O)[C@H](Cc1ccccc1)NC(=O)CCC1CC(OC(=O)NCc2cccc3ccccc23)CC2(CCCC(COC(=O)NCCc3ccc(Cl)cc3)O2)O1 (stereo partly drawn) | yes (1)
